Numbers sourced from the RNAGym collection of RNA variant scans (doi:10.7554/elife.80360).

B1: HDV Ribozyme (parent)
chain: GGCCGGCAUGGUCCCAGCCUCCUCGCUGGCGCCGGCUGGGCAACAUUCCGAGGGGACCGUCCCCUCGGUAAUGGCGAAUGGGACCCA

variants of: B1; assay: self-cleavage, relative activity (ratio to wild type); higher = more cleavage; co-transcriptional
Consider the reported self-cleavage of an entry and match it to a band in range A (below 0.07), range B (0.07 to below 0.8), range C (0.8 or more)

- C33G C58A: range B
- C3A C13G: range A
- C13A C41G: range A
- C30A G31A: range B
- C62G U65C: range B
- A8G A45G: range C
- A16U C26A: range C
- G40C A51C: range B
